Record form. Attribute: AUC. Fill in for each entry.
- Protocol Summary: Pharmacokinetics Studies in Dog
- Format: in vivo
- Condition Notes: male, beagle, dog, plasma; dogs, IV administration, dose = 0.5 mg/kg
Where a name gives a salt, the structure may show the parent alone.
Mention the unit after the number when you answer.

In the examples that follow, each entry is paired with its recorded AUC.
>  <Compound>
COC[C@H](C)Oc1ccc2c(c1)N(O)C(=O)[C@@H](N)C2 [Example 2, HCl Salt]

>  <Measured Quantity>
AUC

>  <Obs Value>
185 ng·h/mL

$$$$
>  <Compound>
COCCOc1ccc2c(c1)N(O)C(=O)[C@@H](N)C2 [Example 3, HCl Salt]

>  <Measured Quantity>
AUC

>  <Obs Value>
194 ng·h/mL

$$$$

Ask | Field request: AUC | item: CC(C)Oc1ccc2c(c1)N(O)C(=O)[C@@H](N)C2 [Example 5, HCl Salt]
Reply | 218 ng·h/mL
